The measured values listed here are drawn from paper PMC8561351.

- Target or test system: HLA-A0207 (Homo sapiens, UniProt P04439, D140Y/D185E/D98H/E176V/E277Q/G131W/G231S/I119V/I121R/I166T/I218V/L300P/L318F/N151K/N90K/P208A/P217A/Q86G/Q94H/R138H/R169H/T345S/Y123C)
- Test: Competitive peptide binding assay, HLA-A0207 transfected HMy2.CIR cells
- Details: HLA-A0207; 15 μM unlabeled peptide, fluorescently labeled reference peptide 300 nM, 24 h, 4 °C
Endpoint name: 15 μM inhibition (%)
# unit: % | format: bare number

Please supply the value of reported 15 μM inhibition (%) for the item KLLEQWNLV [Epitope B2, M protein 15-23] 64.64
